assay: Cmax in Sprague-Dawley rat at 2 mg/kg, iv measured after 5 to 600 mins by LC-MS/MS analysis
Type: ADME, organism-based
Parameters: route intravenous, time lower 5 min, dose 2 mg/kg, time upper 600 min
condition label: in vivo
experimental readout: Cmax (ng/mL)
Answer in ng/mL, number only, no unit symbol.

Which Cmax value is on record for Cc1cc(/C=C/C#N)cc(C)c1Oc1nc(Nc2ccc(C#N)cc2)nc2c1CSCC2 ?
8880

* * *

assay: AUC (0 to last) in Sprague-Dawley rat at 20 mg/kg, po measured after 15 to 720 mins by LC-MS/MS analysis
Format: ADME, organism-based
Design: route oral, time lower 15 min, dose 20 mg/kg, time upper 720 min
condition label: in vivo
experimental readout: AUC(0-t)

Using the record for Cc1cc(/C=C/C#N)cc(C)c1Oc1nc(Nc2ccc(C#N)cc2)nc2c1CSCC2 , report its AUC(0-t).
19.5 ng·h/mL

* * *

assay: AUC(0 to last) in Sprague-Dawley rat at 2 mg/kg, iv measured after 5 to 600 mins by LC-MS/MS analysis
Format: ADME, organism-based
Set-up: route intravenous, dose 2 mg/kg, time upper 600 min, time lower 5 min
condition label: in vivo
experimental readout: AUC(0-t) (ng·h/mL)
Provide only the numeric value, understood in ng·h/mL.

Give its AUC(0-t) value. Item: Cc1cc(/C=C/C#N)cc(C)c1Oc1nc(Nc2ccc(C#N)cc2)nc2c1CSCC2
1510

* * *

These molecules were tested on Human immunodeficiency virus type 1 reverse transcriptase (Human immunodeficiency virus 1); pIC50 is the recorded read-out.
Give only the number. pIC50 is defined as minus log10 of concentration in molar units.

Field: example entries. Status: answers known.
Cc1cc(C#N)cc(C)c1Oc1nc(Nc2ccc(C#N)cc2F)nc2c1CSCC2 : 7.19
Cc1cc(C#N)cc(C)c1Oc1nc(NC2CCN(Cc3ccc(C(N)=O)cc3)CC2)nc2c1CSCC2 : 6.84
Cc1cc(/C=C/C#N)cc(C)c1Oc1nc(Nc2ccc(C#N)cn2)nc2c1CSCC2 : 7.23

Please look at the following molecule next.
Report pIC50 for Cc1cc(C#N)cc(C)c1Oc1nc(Nc2ccc(C#N)cc2)nc2c1CSCC2 please.
7.39

* * *

assay: Half life in human liver microsomes preincubated for 10 mins followed by phosphate buffer addition and incubated for 1 hr and subsequent addition of NADPH regenerating system and measured after 2 hrs by LC-MS/MS analysis
We begin with a simple list: items and their reported half-life at 2 h.
Could you kindly put the unit after your number?

Cc1cc(/C=C/C#N)cc(C)c1Oc1nc(NC2CCN(Cc3ccc(S(N)(=O)=O)cc3)CC2)nc2ccsc12 : 1.6 min

// next entry
Would you mind telling me what half-life at 2 h value was observed for Cc1cc(/C=C/C#N)cc(C)c1Oc1nc(Nc2ccc(C#N)cc2)nc2c1CSCC2 ?
7.4 min

* * *

The following molecules are shown together with reported IC50 values.
target or test system: UniProt:Q72547
assay: Inhibition of wild type HIV1 reverse transcriptase assessed as reduction in biotin-dUTP incorporation into […] incubated for 1 hrs by ELISA
Lab book: enter the figure in nM, no units written.

Recorded results for 7 molecules are shown here.
Cc1cc(C#N)cc(C)c1Oc1nc(NC2CCN(Cc3ccc([N+](=O)[O-])cc3)CC2)nc2c1CSCC2 : 230
Cc1cc(C#N)cc(C)c1Oc1nc(NC2CCN(Cc3cc(=O)[nH]c(=O)[nH]3)CC2)nc2c1CSCC2 : 89
Cc1cc(/C=C/C#N)cc(C)c1Oc1nc(NC2CCN(Cc3ccc(S(N)(=O)=O)cc3)CC2)nc2c1CSCC2 : 203
Cc1cc(/C=C/C#N)cc(C)c1Oc1nc(NC2CCN(Cc3ccc([N+](=O)[O-])cc3)CC2)nc2c1CSCC2 : 232
Cc1cc(/C=C/C#N)cc(C)c1Oc1nc(Nc2ccc(C#N)cc2)nc2c1CSCC2 : 81
Cc1cc(C#N)cc(C)c1Oc1nc(Nc2ccc(C#N)cn2)nc2c1CSCC2 : 53
Cc1cc(/C=C/C#N)cc(C)c1Oc1nc(Nc2ccc(C#N)cc2F)nc2c1CSCC2 : 51

# IC50 lookup, item Cc1cc(C#N)cc(C)c1Oc1nc(NC2CCN(Cc3ccc(S(N)(=O)=O)cc3)CC2)nc2c1CSCC2
151
